Task for the reader: assign each of the following compounds its reported Percent Effect.
Target: Sialic acid-binding Ig-like lectin 9 (Homo sapiens) (UniProt Q9Y336)
Sequence (Q9Y336 whole entry): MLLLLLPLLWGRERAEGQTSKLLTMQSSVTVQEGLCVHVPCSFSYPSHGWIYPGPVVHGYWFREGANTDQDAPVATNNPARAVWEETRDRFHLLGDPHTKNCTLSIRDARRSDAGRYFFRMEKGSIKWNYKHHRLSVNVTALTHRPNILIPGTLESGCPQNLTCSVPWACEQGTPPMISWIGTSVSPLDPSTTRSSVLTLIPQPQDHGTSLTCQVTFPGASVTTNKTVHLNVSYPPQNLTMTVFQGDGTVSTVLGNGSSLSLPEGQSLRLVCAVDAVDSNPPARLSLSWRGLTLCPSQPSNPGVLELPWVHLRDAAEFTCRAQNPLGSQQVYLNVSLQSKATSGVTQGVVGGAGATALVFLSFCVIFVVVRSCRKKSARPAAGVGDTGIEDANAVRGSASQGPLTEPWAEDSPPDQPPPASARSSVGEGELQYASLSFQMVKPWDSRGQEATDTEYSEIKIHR
Experiment: Hs-Siglec9 ALPHAscreen SOP 20170721
Design: scale not given: direction of the effect not stated beside the values
Conditions: 10 µM
Quick reminder: number only, in %, skip the unit.

Q. So what's the measured Percent Effect for this one? CC(=O)Nc1nc(C(=O)N2CCCC2c2ccccc2C)cs1 (stereo not drawn)
A. 1.33

Q. Here is the next compound: O=C1CC2(CCCNC2)C(=O)N1Cc1ccc(F)cc1 (stereo not drawn)
A. -3.81

Q. What do you get for Cc1cc(CNc2cc(Cl)ccc2Cl)no1 ?
A. 3.56

Q. Item: CCCc1cc(C(=O)N2CCOC(c3nc(-c4cccs4)no3)C2)no1 (stereo not drawn)
A. 6.29

Q. Proceed to COc1c(C2CCCN2C(=O)Cc2c(C)noc2C)c(C)nn1C (stereo not drawn)
A. 8.65

Q. What do you get for CCC(=O)NCCc1cc(N2CCN(C(C)=O)CC2)nc(C2CC2)n1 ?
A. -2.83

Q. Repeat with CN(Cc1cn2ccccc2c1C#N)C1CCCN(c2cccnn2)C1 (stereo not drawn)
A. 10.5

Q. Item: Cc1nc(C)n(CC2CCCN(CCOc3cccc(C#N)c3)C2)n1 (stereo not drawn)
A. 4.91

Q. Likewise for O=C(c1cc(F)ccc1F)C1CCN(C(=O)c2ccc(=O)[nH]n2)CC1 ?
A. 0.809

Q. Now the same for Cc1nc(N)sc1C(=O)N1CCCC(c2nccn2CCCN(C)C)C1 (stereo not drawn)
A. 10.2

Q. Ok, now O=C(NCC1(N2CCOCC2)CCSC1)Nc1ccc(F)cc1 (stereo not drawn)
A. 1.34

Q. Next record, please: COc1ccc(CNCC2CCN(CC(C)O)CC2)c2ccccc12 (stereo not drawn)
A. 5.63

Q. Now consider COC(=O)COc1nc(CC(C)C)c2c(c1C#N)CCCC2 and answer again.
A. -5.64

Q. Try Cn1cccc1C(=O)N1CCCC2(CCCN2Cc2cccnc2)C1 (stereo not drawn) next.
A. -0.843

Q. // next record CC(C(=O)N1CCc2ccccc2C1)n1cc(Br)cn1 (stereo not drawn)
A. 6.63

Q. Would you kindly repeat that for Cc1nc(C)c(C(=O)N2CCCC2c2nnc3n2CCCCC3)s1 (stereo not drawn) ?
A. 1.58

Q. Another compound: COc1ccc(CCC(=O)Nc2cccnc2N2CCCC2)cc1Br
A. 0.341

Q. Lookup CS(=O)(=O)N1CCC(Oc2cnccn2)CC1
A. 6.29

* * *

Biological target: Tyrosyl-tRNA synthetase, putative (Trypanosoma cruzi (strain CL Brener))
Test: Trypanosoma cruzi tyrosyl tRNA synthetase (TcYRS) _High Tyrosine SOP; further: in the data most compounds retested in dose-response had high values
Format: functional
Design: scale not given: direction of the effect not stated beside the values
Conditions: 30 µM
Assignment: determine reported Percent Effect for the given compounds.
Please give a number only; it is taken to be in %.

Q. Sample C[C@@H]1CN(C2(C(=O)N3CCOCC3)Cc3ccccc3C2)C[C@H](C)O1 — what was its Percent Effect?
A. 5.26

Q. What do you have for COC[C@@H]1CC[C@H]2[C@H](CCN2S(=O)(=O)c2cccc(C)c2)O1 ?
A. 0.526

Q. And for CN1CC(=O)N(c2ccccc2)CC12CCN(CC1CC1)C2 (stereo not drawn) ?
A. -0.526

Q. // repeat for Cn1cnc2c1CCN(CCS(=O)(=O)c1ccccc1)C2 and report
A. 0.526

Q. Try this compound too: Cc1cc(NC(=O)NCC(C)N2CCc3ccccc32)no1 (stereo not drawn)
A. 12.8

Q. Now the compound CCOc1ccc(CC(CNC(=O)c2ccoc2)C(N)=O)cc1 (stereo not drawn)
A. 7.62

Q. Note, next up: Cc1cccc(NC2CCN(C(=O)Nc3cc(C)on3)CC2)n1
A. 4.43

Q. Try the compound COc1ccccc1N1CCC(CNCc2cccc(OC)c2OC)C1 (stereo not drawn)
A. 13.3

Q. Again, but for COCC(=O)N1CCC(c2cccc(Cc3ccc(F)cc3)n2)CC1
A. 2.15

Q. Next: Cn1ccnc1N1CCN(C(=O)Cc2ccc(F)cc2)CC1
A. 6.35

Q. Ok, now Cc1cc(C2CCCN(C(=O)c3cnccn3)C2)ccn1 (stereo not drawn)
A. 2.15

Q. Continue with CCn1cc(NC(=O)NCc2ccc3c(c2)OCCO3)cn1
A. 11.8

Q. Can you handle Cc1cnn(CCNCc2nnc(C3CC3)o2)c1 next?
A. 6.86

Q. Similarly, CCC(=O)NC1CCN(c2cccc(CC)c2)CC1 ?
A. 3.12

Q. Next compound up: CN1[C@H](CN2CCCC2)C[C@@H]2CN(C(=O)Cc3cccs3)CC[C@@H]21
A. 7.73

Q. Would you kindly repeat that for Cc1cnn(CC2CCCN2Cc2coc(-c3ccccc3)n2)c1 (stereo not drawn) ?
A. 3.23

Q. Could you do the same for CC1CCN(c2ncc3c(n2)CN(c2ccccc2)C3=O)CC1 , please?
A. 2.15

Q. Now this one: NC(=O)c1ccc2c(c1)nc1n2CCN(Cc2ccccc2)C1
A. 4.25

Q. Quick one: CCn1ccnc1CN1CCCN(C(=O)c2cccn2C)CC1
A. 2.39

Q. Also, CCc1nc(CN(C)C2CCN(CCS(C)(=O)=O)C2)no1 (stereo not drawn) please.
A. 5.79

Q. What do you have for CNC(=O)[C@H]1C[C@@H]2CN(C(=O)Nc3ccc(F)cc3)C[C@H]1O2 ?
A. 7.41

Q. Another compound to look at: O=C(c1ccc(F)cc1Cl)N1CCC(Nc2cccnn2)CC1
A. 5.88

Q. Let us now turn to Cc1cc2c(=O)n3c(nc2s1)CCN(C(=O)c1scnc1C)CC3
A. -1.07

Q. Cool, now CC(=O)Nc1nc(C(=O)N2CCCC2c2ccccc2C)cs1 (stereo not drawn)
A. 5.83

Q. Param item: CC(NC(=O)NCc1ccc(Cl)s1)c1ccccn1 (stereo not drawn)
A. 3.12

Q. Record: CCN1CC(C(=O)NC(C)(C)CC(C)(C)C)CC1=O (stereo not drawn)
A. 5.38

Q. Request: Cc1ccc(CNC2CCN(CCc3ccncc3)CC2)cc1C
A. 2.97

Q. Subsequent entry: Cn1cnc2c1CCN(CCCc1ccccc1)C2
A. 7.89

Q. Proceed to O=C(NCCO)C1(Cc2cc(-c3ccc(F)cc3F)no2)CCOCC1
A. 0

Q. Can you check CCOC(C)c1nc(CN2CCC(CNC(C)=O)CC2)cs1 (stereo not drawn) next?
A. -0.529

Q. And for CN(C)C(=O)CCCNC(=O)C(c1cccc(F)c1)N(C)C (stereo not drawn) ?
A. 10.1

Q. Next compound up: Cc1ccc(C(=O)N2CCC3(CC2)CC(N2CCCC2)C3)cc1
A. 8.7

Q. One more compound: O=C1CCC(C(=O)NCc2nn(-c3ccccc3)c3c2CCC3)CN1 (stereo not drawn)
A. 1.44

Q. Another compound to check: CN(C)CCOCC1CN(Cc2ccsc2)Cc2ccnn2C1 (stereo not drawn)
A. 1.58

Q. Try this compound too: Cc1ccc(-c2noc(CN3CCOC(Cn4cncn4)C3)n2)cc1 (stereo not drawn)
A. 2.97

Q. Try this compound too: CCc1noc(C(C)N2CCN(Cc3nnc(C4CC4)o3)CC2)n1 (stereo not drawn)
A. 0.526

Q. Entry Cn1c(C(F)(F)F)nn(CCNC(=O)CSCc2ccccc2)c1=O please
A. 4.3

Q. Also Cc1ncsc1C(=O)NC1CCN(CC(=O)N(C)c2ccccc2)CC1 ?
A. 10.3

Q. Consider next the compound Cc1nc(CN2CCC(CNC(=O)Nc3ccccn3)CC2)oc1C in the same way.
A. 4.3

Q. And the next one, O=C(c1ccco1)N1C[C@H]2CCCN(Cc3cccs3)[C@H]2C1 ?
A. 3.68

Q. Please do the same for c1ccc(Cn2cc3c(n2)C(CNCc2ccco2)OCC3)nc1 (stereo not drawn) as well.
A. 4.95

Q. Again, but for CCN(C(=O)c1ccc(-n2ncc(C#N)c2N)cc1)C1CCCC1
A. -14.7

Q. Lookup Cc1ccc(CNC(=O)CN2CCCC(Cn3cncn3)C2)s1 (stereo not drawn)
A. 4.74
